// provenance: PubChem BioAssay (NCI)

System: TK-10 renal
Assay: NCI tumour cell line growth inhibition, 48 h
Readout kind: TGI (µM)
Respond with the bare value in µM.

Query: Specify reported TGI for the compound shown: `CCCCCCC#CC#Cc1cccc(=O)o1`
Reply: 8.23

As a next step, examine the compound that follows.
Query: Specify reported TGI for the compound shown: `Cc1ccc2c(c1)O/C(=C\c1ccc([N+](=O)[O-])o1)C2=O`
Reply: 2.75

* * *

The reader will find reported TGI values listed item by item below.
System: COLO 205 colon
Assay: NCI tumour cell line growth inhibition, 48 h
Respond with the bare value in µM.

Consider the worked cases shown below.
Query: Specify reported TGI for the compound shown: CC(C(=O)c1ccc(Cl)cc1)C1OC(=O)C(Cl)=C1Cl (centres undefined)
Reply: 51

Query: Specify reported TGI for the compound shown: `CC(/C=N\NC(=S)N(C)C)=N/NC(=S)N(C)C`
Reply: 33.7

Query: Specify reported TGI for the compound shown: `CN1CCN(c2ccc(NC3=C(Cl)C(=O)c4ncccc4C3=O)cc2C#N)CC1`
Reply: 4.51

Query: Specify reported TGI for the compound shown: C1=C(c2ccccc2)C(c2ccc(OCCN3CCCCC3)cc2)Oc2ccccc21 (centres undefined)
Reply: 3.15

Query: Specify reported TGI for the compound shown: `CN1CCN(CCNc2ccc(CO)c3sc4ccccc4c(=O)c23)CC1`
Reply: 16.5

***
Query: Specify reported TGI for the compound shown: `C[C@@H](Oc1ccc2[nH]nc(/C=C/c3cnn(CCO)c3)c2c1)c1c(Cl)cncc1Cl`
Reply: 0.306

Query: Specify reported TGI for the compound shown: `c1cc[c]([Sn]([S]c2cccc3cccnc23)([S]c2cccc3cccnc23)[c]2ccccc2)cc1`
Reply: 0.298

Query: Specify reported TGI for the compound shown: `Cc1ccc2c(c1)O/C(=C\c1ccc([N+](=O)[O-])o1)C2=O`
Reply: 3.28

* * *

Test system: OVCAR-4 ovarian
Test: NCI tumour cell line growth inhibition, 48 h
Readout kind: TGI

Query: GET TGI | system: OVCAR-4 ovarian | item: `COc1cc(Cl)c2c3c(c(C(=O)c4ccccc4)oc13)CCC2`
Reply: > 100 µM

Query: GET TGI | system: OVCAR-4 ovarian | item: `CCCCCCC#CC#Cc1cccc(=O)o1`
Reply: 23.1 µM

Query: GET TGI | system: OVCAR-4 ovarian | item: CCOC(=O)CCC(NC(=O)c1ccc(Nc2cnc3ccc(C(F)(F)F)cc3n2)cc1)C(=O)OCC (stereo not given)
Reply: > 74.3 µM

***
Query: GET TGI | system: OVCAR-4 ovarian | item: `NC(=S)N/N=c1\cc(C(=O)Nc2ccc([N+](=O)[O-])cc2[N+](=O)[O-])oc2ccccc12`
Reply: > 100 µM

Query: GET TGI | system: OVCAR-4 ovarian | item: `O=C(NCCNCCNC(=O)C(F)(F)F)C(F)(F)F`
Reply: > 100 µM

Query: GET TGI | system: OVCAR-4 ovarian | item: C[C@]12C3CC[C@@]4(CO)C[C@]3(CCC1[C@](C)(C(=O)O)CC[C@@H]2O)CC4=O (stereo not given in full)
Reply: > 100 µM

Query: GET TGI | system: OVCAR-4 ovarian | item: `C(=C\c1nccc2c1[nH]c1ccccc12)/c1ccccc1`
Reply: > 100 µM

Query: GET TGI | system: OVCAR-4 ovarian | item: `CC(=O)/C=C/C1=C(c2cccs2)c2ccccc2CC1`
Reply: 64.9 µM

Query: GET TGI | system: OVCAR-4 ovarian | item: `c1cc[c]([Sn]([S]c2cccc3cccnc23)([S]c2cccc3cccnc23)[c]2ccccc2)cc1`
Reply: 0.336 µM

Query: GET TGI | system: OVCAR-4 ovarian | item: `CCOC(=O)N[C@H]1CCc2c(Br)c(OC)c(OC)c(OC)c2-c2ccc(SC)c(=O)cc21`
Reply: > 53.5 µM
